tested on: Moraxella catarrhalis; test: Antimicrobial activity against Moraxella catarrhalis ATCC 25238; type: functional
Reported property: MIC

>>> test_result("CCC/C=C/[C@]1(C)SC(=O)C(C)=C1O")
"> 128 µg/mL"
>>> test_result("CCC/C=C/[C@@]1(C)SC(=O)C(C)=C1O")
"> 128 µg/mL"
>>> test_result("C=C/C(C)=C/[C@@]1(C)SC(=O)C(C)=C1O")
"0.25 µg/mL"
>>> test_result("C=C[C@@]1(C)SC(=O)C=C1O")
"> 128 µg/mL"
>>> test_result("CCCCCC/C=C/[C@@]1(C)SC(=O)C=C1O")
"> 128 µg/mL"
>>> test_result("CCCCCC/C=C/[C@@]1(C)SC(=O)C(C)=C1O")
"> 128 µg/mL"
>>> test_result("CC/C=C/[C@@]1(C)SC(=O)C(C)=C1O")
"> 128 µg/mL"
>>> test_result("CCC/C=C/[C@]1(C)SC(=O)C=C1O")
"> 128 µg/mL"
>>> test_result("C=C[C@]1(C)SC(=O)C=C1O")
"> 128 µg/mL"
>>> test_result("CC/C=C/[C@]1(C)SC(=O)C(C)=C1O")
"> 128 µg/mL"
>>> test_result("C=C/C(C)=C/[C@@]1(C)SC(=O)C=C1O")
"16 µg/mL"
>>> test_result("CCCC/C=C/[C@]1(C)SC(=O)C(C)=C1O")
"> 128 µg/mL"
>>> test_result("C/C=C/[C@@]1(C)SC(=O)C=C1O")
"> 128 µg/mL"
>>> test_result("C=C[C@@]1(C)SC(=O)C(C)=C1O")
"> 128 µg/mL"
>>> test_result("C=C[C@]1(C)SC(=O)C(C)=C1O")
"> 128 µg/mL"
>>> test_result("C/C=C/[C@@]1(C)SC(=O)C(C)=C1O")
"> 128 µg/mL"
>>> test_result("O=C(O)c1cn(C2CC2)c2cc(N3CCNCC3)c(F)cc2c1=O")
"0.031 µg/mL"
>>> test_result("CCC/C=C/[C@@]1(C)SC(=O)C=C1O")
"> 128 µg/mL"
>>> test_result("CC/C=C/[C@]1(C)SC(=O)C=C1O")
"> 128 µg/mL"
>>> test_result("C=C/C(C)=C/[C@]1(C)SC(=O)C(C)=C1O")
"> 128 µg/mL"
>>> test_result("CC/C=C/[C@@]1(C)SC(=O)C=C1O")
"> 128 µg/mL"
>>> test_result("C=C/C(C)=C/[C@]1(C)SC(=O)C=C1O")
"> 128 µg/mL"
>>> test_result("C/C=C/[C@]1(C)SC(=O)C=C1O")
"> 128 µg/mL"
>>> test_result("CCCC/C=C/[C@@]1(C)SC(=O)C=C1O")
"> 128 µg/mL"
>>> test_result("C/C=C/[C@]1(C)SC(=O)C(C)=C1O")
"> 128 µg/mL"
>>> test_result("CCCC/C=C/[C@]1(C)SC(=O)C=C1O")
"> 128 µg/mL"
>>> test_result("CCCC/C=C/[C@@]1(C)SC(=O)C(C)=C1O")
"> 128 µg/mL"

Source listed as ChEMBL document CHEMBL1139992.
